- system-tested: thrombin (Homo sapiens, UniProt P00734)
- Construct: a light chain A composed of 39 amino acid residues and a heavy chain B composed of 259 amino acid residues; purchased China National Institute for the Control of Pharmaceutical and Biological Products
- assay-method-text: In vitro thrombin inhibition assay (fluorogenic substrate Ac-FVR-AMC)
- Format: biochemical
measured-property: IC50
Please make sure the unit comes right after the number.

For this compound ( `C=C(c1ccccc1OCc1cccc(Cl)c1)n1ccnc1` ), measured IC50 is 72 nM

FYI, the data here is from paper PMC11449769.
